Test: Pharmacokinetic phase: plasma exposure after oral dosing in non-infected PXB mice
Format: in vivo
Conditions: PXB, mouse, plasma, po, 30 mg/kg, non-infected PXB mice, 30 mg/kg p.o., 24 h, animal 401; read-out: Plasma conc.
result type: concentration at 24 h

Input line: Identify measured concentration at 24 h associated with CCCCC1CN(c2ccccc2)c2cc(SC)c(O/C=C(\F)C(=O)O)cc2S(=O)(=O)N1C (stereo not shown)
Output line: 230 ng/mL

----------
Test: Pharmacokinetic phase: plasma exposure after oral dosing in non-infected PXB mice
Format: in vivo
Conditions: PXB, mouse, plasma, po, 10 mg/kg, non-infected PXB mice, 10 mg/kg p.o., 2 h, animal 102; read-out: Plasma conc.
result type: concentration at 2 h (µg/mL)
Could you give me the number in µg/mL? Just the number is fine.

Input line: Determine from records and report concentration at 2 h for CCCCC1CN(c2ccccc2)c2cc(SC)c(O/C=C(\F)C(=O)O)cc2S(=O)(=O)N1C (stereo not shown)
Output line: 0.322

Where these numbers come from: patent US20230398125A1
